Cited source for all entries: patent US20110144187

- Tested Target: fibrinogen (Homo sapiens, UniProt P02671-2;P02675;P02679-2 P02671-2:20-629,P02675:31-491,P02679-2:27-437)
- Sequence (P02671 20-629, chain 1 of 3): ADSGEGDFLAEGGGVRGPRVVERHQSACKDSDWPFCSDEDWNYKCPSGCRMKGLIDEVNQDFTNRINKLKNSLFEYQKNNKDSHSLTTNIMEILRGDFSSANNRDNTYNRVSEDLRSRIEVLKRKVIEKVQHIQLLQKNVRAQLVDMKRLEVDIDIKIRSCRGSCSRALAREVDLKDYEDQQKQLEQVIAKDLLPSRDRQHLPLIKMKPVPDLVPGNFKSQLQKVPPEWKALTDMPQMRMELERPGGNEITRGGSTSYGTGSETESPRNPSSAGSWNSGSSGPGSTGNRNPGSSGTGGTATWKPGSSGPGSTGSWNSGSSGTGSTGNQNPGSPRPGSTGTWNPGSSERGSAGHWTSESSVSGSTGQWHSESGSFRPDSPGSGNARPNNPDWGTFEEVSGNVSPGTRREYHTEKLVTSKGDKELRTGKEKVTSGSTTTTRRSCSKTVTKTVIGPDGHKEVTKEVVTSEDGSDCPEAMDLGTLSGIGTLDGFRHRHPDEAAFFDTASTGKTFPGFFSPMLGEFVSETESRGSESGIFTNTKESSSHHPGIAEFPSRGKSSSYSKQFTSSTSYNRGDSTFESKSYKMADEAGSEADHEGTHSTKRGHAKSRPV
- Sequence (P02675 31-491, chain 2 of 3): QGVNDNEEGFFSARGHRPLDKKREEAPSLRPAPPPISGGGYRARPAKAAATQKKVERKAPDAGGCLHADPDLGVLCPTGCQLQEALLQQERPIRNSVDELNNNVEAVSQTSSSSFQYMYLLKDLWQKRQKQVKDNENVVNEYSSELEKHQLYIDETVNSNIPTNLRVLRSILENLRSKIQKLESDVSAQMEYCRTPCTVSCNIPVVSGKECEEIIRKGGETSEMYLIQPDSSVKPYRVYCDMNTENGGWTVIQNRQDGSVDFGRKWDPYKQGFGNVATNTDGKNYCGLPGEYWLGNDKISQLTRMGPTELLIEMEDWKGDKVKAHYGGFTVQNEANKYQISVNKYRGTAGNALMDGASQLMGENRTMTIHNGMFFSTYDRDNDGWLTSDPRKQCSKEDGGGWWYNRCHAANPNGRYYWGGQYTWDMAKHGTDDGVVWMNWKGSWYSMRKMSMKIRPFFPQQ
- Sequence (P02679 other isoform, or with tags, fused parts or gaps, chain 3 of 3): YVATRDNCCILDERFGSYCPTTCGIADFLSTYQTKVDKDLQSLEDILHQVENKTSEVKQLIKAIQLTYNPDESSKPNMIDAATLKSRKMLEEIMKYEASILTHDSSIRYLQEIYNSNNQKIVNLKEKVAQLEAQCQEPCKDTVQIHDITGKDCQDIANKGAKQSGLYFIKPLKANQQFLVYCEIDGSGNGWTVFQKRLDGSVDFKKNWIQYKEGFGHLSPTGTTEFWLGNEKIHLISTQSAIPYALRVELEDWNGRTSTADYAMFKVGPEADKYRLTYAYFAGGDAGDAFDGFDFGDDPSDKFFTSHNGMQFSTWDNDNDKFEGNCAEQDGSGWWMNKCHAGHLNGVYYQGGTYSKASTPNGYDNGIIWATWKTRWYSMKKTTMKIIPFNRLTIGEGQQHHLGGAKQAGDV
- Assay Name: SPR; biotin-aptamer on streptavidin chip
- Experimental Context: tags: Sigma-Aldrich, from human plasma, about 60% protein; chain copies: 2; label: 5'-biotin
Give Kd for every item shown.
Give bare numbers, in nM.

# example entries with known answers
binder="85B-3 dTTP (ssDNA, none (natural T)) DNA: CCTTCGTTGTCTGCCTTCGTAGGACCGCAGACAACGACGCAGGGAAATACCGCAAGTCCAGCCAAATGCCACCCTTCAGAATTCGCACCA" quantity_measured=Kd unit_descriptor=nM measured_value=233
binder="85B-3 B-TTP (ssDNA, quinoline-8-boronic acid-modified T (B-TTP) replacing T outside the primer region) DNA: CCTTCGTTGTCTGCCTTCGTAGGACCGCAGACAACGACGCAGGGAAATACCGCAAGTCCAGCCAAATGCCACCCTTCAGAATTCGCACCA" quantity_measured=Kd unit_descriptor=nM measured_value=17.6
binder="85B-4 B-TTP (ssDNA, quinoline-8-boronic acid-modified T (B-TTP) replacing T outside the primer region) DNA: CCTTCGTTGTCTGCCTTCGTAGGACCGCAGACATCGACGCAGGGAAATTCCGCAAGACCAGCCAAAAGCCACCCTTCAGAATTCGCACCA" quantity_measured=Kd unit_descriptor=nM measured_value=11.2
binder="85B-5 B-TTP (ssDNA, quinoline-8-boronic acid-modified T (B-TTP) replacing T outside the primer region) DNA: CCTTCGTTGTCTGCCTTCGTAGGACCGCAGACATCGACGCAGGGAAATTCCGCAAGTCCAGCCAAAAGCCACCCTTCAGAATTCGCACCA" quantity_measured=Kd unit_descriptor=nM measured_value=329
binder="85B-5 dTTP (ssDNA, none (natural T)) DNA: CCTTCGTTGTCTGCCTTCGTAGGACCGCAGACATCGACGCAGGGAAATTCCGCAAGTCCAGCCAAAAGCCACCCTTCAGAATTCGCACCA" quantity_measured=Kd unit_descriptor=nM measured_value=1080
binder="85B-1 dTTP (ssDNA, none (natural T)) DNA: CCTTCGTTGTCTGCCTTCGTAGGACCGCAGACAACGACGCAGGGAAATTCCGCAAGTCCAGCCAAATGCCACCCTTCAGAATTCGCACCA" quantity_measured=Kd unit_descriptor=nM measured_value=507
binder="85B-2 B-TTP (ssDNA, quinoline-8-boronic acid-modified T (B-TTP) replacing T outside the primer region) DNA: CCTTCGTTGTCTGCCTTCGTAGGACCGCAGACATCGACGCAGGGAAAATCCGCAAGTCCAGCCAAATGCCACCCTTCAGAATTCGCACCA" quantity_measured=Kd unit_descriptor=nM measured_value=63.7
binder="85B-1 B-TTP (ssDNA, quinoline-8-boronic acid-modified T (B-TTP) replacing T outside the primer region) DNA: CCTTCGTTGTCTGCCTTCGTAGGACCGCAGACAACGACGCAGGGAAATTCCGCAAGTCCAGCCAAATGCCACCCTTCAGAATTCGCACCA" quantity_measured=Kd unit_descriptor=nM measured_value=205
binder="85B-4 dTTP (ssDNA, none (natural T)) DNA: CCTTCGTTGTCTGCCTTCGTAGGACCGCAGACATCGACGCAGGGAAATTCCGCAAGACCAGCCAAAAGCCACCCTTCAGAATTCGCACCA" quantity_measured=Kd unit_descriptor=nM measured_value=238

Would you kindly share the measured Kd for 85B-2 dTTP (ssDNA, none (natural T)) DNA: CCTTCGTTGTCTGCCTTCGTAGGACCGCAGACATCGACGCAGGGAAAATCCGCAAGTCCAGCCAAATGCCACCCTTCAGAATTCGCACCA ?
127
